Reference for the values: paper PMC12472749

# target: hSirt5 (Homo sapiens, UniProt Q9NXA8)
# Construct: comprised amino acids 37–310 (C-terminal region); His-tag (N); purchased Reaction Biology Corporation (Malvern, PA, USA); host or cells: Escherichia coli
# Sequence (Q9NXA8 37-310): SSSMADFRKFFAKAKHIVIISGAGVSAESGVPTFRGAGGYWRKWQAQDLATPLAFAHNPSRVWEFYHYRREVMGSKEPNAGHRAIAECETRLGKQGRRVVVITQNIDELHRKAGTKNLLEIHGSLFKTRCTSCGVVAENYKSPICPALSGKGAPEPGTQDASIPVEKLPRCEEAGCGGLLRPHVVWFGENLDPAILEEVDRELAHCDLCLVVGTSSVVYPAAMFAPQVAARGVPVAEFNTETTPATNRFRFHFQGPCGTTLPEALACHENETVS
# experiment: fluorescence-based sirtuin 5 assay (Reaction Biology) with substrate Ac-Lys-succ-AMC and NAD+
# Type: biochemical
# assay-conditions: recombinant sirtuin 5 aa 37-310, 50 µM Ac-Lys-succ-AMC, 10-dose 3-fold dilution, mean of three measurements; read-out: IC50 (hSirt5) [µM] ± SD
For each record, check the reported IC50: if it is below 30 µM write label 1, else write label 0.

compound: N#CC[C@H](CC(=O)O)NC(=O)c1ccc(-c2cn(-c3ccc(O)c(C(=O)O)c3)nn2)cc1 [Compound 49]
group: label 0
//
compound: N#CC[C@@H](CC(=O)O)NC(=O)c1ccc(-c2cn(-c3ccc(O)c(C(=O)O)c3)nn2)cc1 [Compound 50]
group: label 1
//
compound: CC1(C)OC(=O)c2cc(-c3cc(-c4ccc(C5=N[C@@H](CC(=O)O)CB(O)O5)cc4)on3)ccc2O1 [Compound 51]
group: label 0
//
compound: O=C(O)CCNC(=O)c1ccc(-c2cn(-c3ccc(O)c(C(=O)O)c3)nn2)cc1 [CG_220]
group: label 1
//
compound: CC1(C)OC(=O)c2cc(-n3cc(-c4ccc(C5=N[C@H](CC(=O)O)CB(O)O5)cc4)nn3)ccc2O1 [Compound 54]
group: label 0

Data request: Input O=CCC(CC(=O)O)NC(=O)c1ccc(-c2cc(-c3ccc(O)c(C(=O)O)c3)no2)cc1 (stereo not shown) [Compound 61] ; condition: IC50 strictly below 30 µM. Does it hold?
Data returned: label 0

Data request: Try this compound too: O=C(O)CCNC(=O)c1ccc(-c2cc(-c3ccc(O)c(C(=O)O)c3)no2)cc1 [CG_209]
Data returned: label 1
